test system: velvetleaf; test: Postemergent control of plant species; assay type: in vivo, Abutilon theophrasti; settings: Abutilon theophrasti, post-emergence, 336 h, read-out: percent postemergent control
readout.type: pest or weed control at 500 ppm (%)

In [3]: df
Out[3]:
                        structure_as_smiles  quantitative_readout
0  Cc1cc(C)n2nc(S(=O)(=O)Nc3c(C)nn(C)c3C(F)(F)F)nc2n1                    40
1  Cc1ccn2nc(S(=O)(=O)Nc3c(Cl)ccc4ccccc34)nc2n1                   100
2  CSc1cccc(Cl)c1NS(=O)(=O)c1nc2nc(C)cc(C)n2n1                    85
3   O=S(=O)(Nc1ccccc1C(F)(F)F)c1nc2ncccn2n1                    70
4  Cc1cc(C)n2nc(S(=O)(=O)N(C)c3c(Cl)cccc3Cl)nc2n1                    90

---

system: barnyardgrass; assay: Preemergent control of plant species; type: in vivo, Echinochloa crusgalli; conditions: Echinochloa crus-galli, pre-emergence, 336 h; 0.25 lb/acre; read-out: percent preemergent control
// reported pest or weed control at 280.212 g/ha per item
readout.type: pest or weed control at 280.212 g/ha (%)

>>> df
                        structure_as_smiles                          readout_type  quantitative_readout
0  Cc1cn2nc(S(=O)(=O)Nc3c(Cl)cccc3Cl)nc2nc1N(C)C  pest or weed control at 280.212 g/ha                    10
1  COc1ccc(F)c(NS(=O)(=O)c2nc3nc(C)ccn3n2)c1F  pest or weed control at 280.212 g/ha                   100
2  COC(=O)c1ccc(C)c(NS(=O)(=O)c2nc3nc(C)cc(C)n3n2)c1Br  pest or weed control at 280.212 g/ha                     0
3  CC(=O)N(c1c(Cl)cccc1Cl)S(=O)(=O)c1nc2nc(C)cc(C)n2n1  pest or weed control at 280.212 g/ha                    90
4  COc1cccc(C(F)(F)F)c1NS(=O)(=O)c1nc2nc(C)cc(C)n2n1  pest or weed control at 280.212 g/ha                   100

---

test system: corn; experiment: Postemergent control of plant species; format: in vivo, Zea mays; conditions: Zea mays, post-emergence, 336 h, read-out: percent postemergent control
// reported plant injury at 500 ppm per item
readout.type: plant injury at 500 ppm (%)

                        structure_as_smiles  target_desc             readout_type  quantitative_readout
0  Cc1ccn2nc(S(=O)(=O)N(c3c(F)cccc3F)S(=O)(=O)c3ccccc3)nc2n1         corn  plant injury at 500 ppm                     0
1  Cc1ccn2nc(S(=O)(=O)Nc3c(Cl)ccc4ccccc34)nc2n1         corn  plant injury at 500 ppm                    40
2  CCOc1cnc2nc(S(=O)(=O)Nc3ccccc3C(F)(F)F)nn2c1         corn  plant injury at 500 ppm                     0
3  Cc1ccnc2nc(S(=O)(=O)Nc3c(Cl)cccc3Cl)nn12         corn  plant injury at 500 ppm                     0
4   COc1ccccc1NS(=O)(=O)c1nc2nc(C)cc(C)n2n1         corn  plant injury at 500 ppm                     0
5  Cc1cc(C)n2nc(S(=O)(=O)Nc3c(C)ccc(Cl)c3Cl)nc2n1         corn  plant injury at 500 ppm                     0
